// provenance: a melting point compilation (Tetko et al.; mined from patent text by program, amines drawn as free bases though some values may be those of a salt)

melting point values by entry
EXPERIMENTAL_READOUT: melting point

>>> df
                                   compound  experimental_value
0  COC(=O)c1c(OC)c(OC)cc2[nH]c(=O)c(=O)[nH]c12            > 300 °C
1         CCCOc1ccccc1C1=NC(=O)C2=NC=NC2=N1       254 to 259 °C
2  CNC(=O)N1CCC(c2nn(-c3ccc(F)cc3)c3ccccc23)CC1       113 to 115 °C
3  OC(c1ccccc1)(c1ccccn1)C1CCN(Cc2ccccc2)CC1 (stereo not given)       142 to 143 °C
4  CCOCC(COCC)Oc1ccc(/C=C/C(=O)OCC)c(Oc2ncc(C(F)(F)F)cc2Cl)c1       66 to 67.5 °C
5  Cc1ccc(C(=O)CC(C)C(=O)O)cc1 (stereo not given)       168 to 170 °C
6  CN1CCN(C2=Nc3cc(Cl)cc4c3N(CC4)c3ccccc32)CC1       199 to 200 °C
7  COC(=O)c1ccc(C(=O)N2CCN(c3ncccc3[N+](=O)[O-])CC2)nc1       129 to 130 °C
8  CSCCOc1ccc(/C=C(\C)c2ccc3c(c2)C(C)(C)CCC3(C)C)cc1         94 to 96 °C
9      COc1ccc(COc2cc(C)nc3c(O)cccc23)cc1OC       129 to 131 °C

###

Consider the following compounds and their measured melting point readings.
EXPERIMENTAL_READOUT: melting point (°C)

In [3]: df
Out[3]:
                                   compound  experimental_readout  unit_of_measure  experimental_value
0  Cc1cc(C)cc(Oc2c(CCCc3ccccc3)c(C)[nH]c(=O)c2I)c1         melting point               °C                 220
1    Fc1ccc(-c2cc(N3CCNCC3)nnc2C(F)(F)F)cc1         melting point               °C                 137
2  CSC1C(O)C(CO)OC1n1ccc(N)nc1=O (stereo unspecified)         melting point               °C                 201

###

melting point overview
EXPERIMENTAL_READOUT: melting point

In [3]: df
Out[3]:
                                   compound  experimental_readout  experimental_value
0  N#CC1c2ccccc2Oc2cc(O)cc(O)c21 (stereo not given)         melting point       211 to 215 °C
1      CCN(CC)c1ccc2cc(C(=O)OCCO)c(=O)oc2c1         melting point       106 to 108 °C
2  CC(=O)Nc1cc(-n2c(=O)cc(C(F)(F)F)n(C)c2=O)c(F)cc1Cl         melting point       257 to 258 °C
3  O=C(O)c1ccc(NC(=O)C(CS)Cc2ccccc2)cc1O (stereo not given)         melting point       166 to 170 °C
4  O=C(CCCc1ccc(Cl)cc1)c1ccc(OCc2ccc3ccccc3n2)cc1         melting point       140 to 142 °C
5  CN1CC(CCN2CCN(c3ccccc3)CC2)c2nc3ccccc3n2C1=O (stereo not given)         melting point       144 to 146 °C
6  CCCCCCCCCCCCCCCCCC(=O)Oc1ccc2c(c1)C(=O)c1ccc(OC(=O)CCCCCCCCCCCCCCCCC)cc1C2=O         melting point       129 to 132 °C
7                  C1CSC(SSCCSSC2=NCCS2)=N1         melting point              102 °C
8        O=c1[nH]c2ccccc2nc1-c1ccc(Cl)cc1Cl         melting point              300 °C
9  CC(CCc1cccc(F)c1)NCC(O)c1ccc(F)c(S(N)(=O)=O)c1 (stereo not given)         melting point         65 to 85 °C
